# Target Or Test System: T1, IL-18 receptors on HEK-Blue IL-18 reporter cells (UniProt Q13478 19-541; O95256 20-599, limits assumed); further: unit not given here
# T1 sequence (looked up) 1: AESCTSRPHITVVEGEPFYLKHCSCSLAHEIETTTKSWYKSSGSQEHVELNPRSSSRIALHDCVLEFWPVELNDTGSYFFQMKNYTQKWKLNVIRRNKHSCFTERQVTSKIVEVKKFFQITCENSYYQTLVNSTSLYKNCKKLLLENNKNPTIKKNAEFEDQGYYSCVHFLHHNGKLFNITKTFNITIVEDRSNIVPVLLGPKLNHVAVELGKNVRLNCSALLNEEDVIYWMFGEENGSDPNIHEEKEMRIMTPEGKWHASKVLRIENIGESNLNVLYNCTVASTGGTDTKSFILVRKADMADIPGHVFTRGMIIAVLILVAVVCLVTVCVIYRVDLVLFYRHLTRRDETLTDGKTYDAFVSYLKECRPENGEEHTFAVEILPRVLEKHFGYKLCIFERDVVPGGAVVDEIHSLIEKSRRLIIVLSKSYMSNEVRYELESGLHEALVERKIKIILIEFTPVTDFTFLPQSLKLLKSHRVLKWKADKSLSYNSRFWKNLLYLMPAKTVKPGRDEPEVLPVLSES
# T1 sequence (looked up) 2: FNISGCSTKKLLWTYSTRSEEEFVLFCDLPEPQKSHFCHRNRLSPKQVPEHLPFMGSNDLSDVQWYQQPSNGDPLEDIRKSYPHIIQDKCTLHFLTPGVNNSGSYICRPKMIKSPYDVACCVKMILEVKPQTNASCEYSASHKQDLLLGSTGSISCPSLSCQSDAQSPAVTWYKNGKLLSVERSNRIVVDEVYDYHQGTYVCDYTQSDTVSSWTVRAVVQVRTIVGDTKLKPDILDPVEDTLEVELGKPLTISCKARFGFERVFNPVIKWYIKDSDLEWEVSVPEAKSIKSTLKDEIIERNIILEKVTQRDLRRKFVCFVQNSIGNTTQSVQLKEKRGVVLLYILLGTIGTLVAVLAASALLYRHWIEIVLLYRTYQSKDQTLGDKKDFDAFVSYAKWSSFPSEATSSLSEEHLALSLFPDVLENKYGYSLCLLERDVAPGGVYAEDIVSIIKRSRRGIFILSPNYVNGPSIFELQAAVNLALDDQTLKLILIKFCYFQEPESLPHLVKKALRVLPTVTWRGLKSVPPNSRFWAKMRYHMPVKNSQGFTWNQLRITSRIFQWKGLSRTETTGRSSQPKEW
# Assay Details: cell-based or functional assay
Entries annotated with measured HEK-Blue activity, No BP, DF-100,000
Just the number, please.

- Binder: "yeast display IL-18 variant K53G, S55V (ligand) YFGKLESKLSVIRNLNDQVLFIDQGNRPLFEDMTDSDMRDNAPRTIFIISMYGDVQPRGMAVTISVKSEKISTLSSENKIISFKEMNPPDNIKDTKSDIIFFQRSVPGHDNKMQFESSSYEGYFLASEKERDLFKLILKKEDELGDRSIMFTVQNED"
  HEK-Blue activity, No BP, DF-100,000: 0.15

// query Suppose we examine the binder yeast display IL-18 variant K53G, S55I (ligand) YFGKLESKLSVIRNLNDQVLFIDQGNRPLFEDMTDSDMRDNAPRTIFIISMYGDIQPRGMAVTISVKSEKISTLSSENKIISFKEMNPPDNIKDTKSDIIFFQRSVPGHDNKMQFESSSYEGYFLASEKERDLFKLILKKEDELGDRSIMFTVQNED ; what HEK-Blue activity, No BP, DF-100,000 value has been reported?
// result 0.14

// query Try this binder too: yeast display IL-18 variant L5W, I22M, K53N, S55Y, Q56H (ligand) YFGKWESKLSVIRNLNDQVLFMDQGNRPLFEDMTDSDMRDNAPRTIFIISMYNDYHPRGMAVTISVKSEKISTLSSENKIISFKEMNPPDNIKDTKSDIIFFQRSVPGHDNKMQFESSSYEGYFLASEKERDLFKLILKKEDELGDRSIMFTVQNED
// result 0.21
